test summary: Efflux ratio of apparent permeability across […] in human Caco-2 cells after 2 hrs by liquid scintillation counting analysis
Type: ADME, cell-based
condition description: caco-2, 2 h
recorded metric: Ratio
Simply state the number, no unit and no words.

Before answering, review these 3 worked examples.
- compound: "Cc1nnn(C)c1-c1cnc2c3ccc(S(C)(=O)=O)cc3n([C@H](c3ccccc3)C3CCOCC3)c2c1"
  result value: 7.3
- compound: "[2H]C([2H])([2H])c1nnn(C)c1-c1cnc2c3ccc(C(C)(C)O)c(F)c3n([C@H](c3ccccc3)C3CCOCC3)c2c1"
  result value: 1.4
- compound: "[2H]C([2H])([2H])c1nnn(C)c1-c1cnc2c3ccc(S(C)(=O)=O)cc3n([C@H](c3ccccc3)C3CCOCC3)c2c1"
  result value: 4.5

Please supply the value of reported Ratio for the item Cc1nnn(C)c1-c1cnc2c3ccc(C(C)(C)O)cc3n([C@H](c3ccccc3)C3CCOCC3)c2c1
2.6

Please supply the value of reported Ratio for the item Cc1nnn(C)c1-c1cnc2c3ccc(C(C)(O)C(F)(F)F)c(F)c3n([C@H](c3ccccc3)C3CCOCC3)c2c1 (some centres not stated)
1.1

Please supply the value of reported Ratio for the item COc1cc2c3ncc(-c4c(C)nnn4C)cc3n([C@H](c3ccccc3)C3CCOCC3)c2cc1C(C)(C)O
1.3

Please supply the value of reported Ratio for the item [2H]C([2H])([2H])c1nnn(C)c1-c1cnc2c3ccc(C(C)(C)O)c(Cl)c3n([C@H](c3ccccc3)C3CCOCC3)c2c1
1.2

----------
assayed target: Bromodomain-containing protein 3 (Homo sapiens, UniProt Q15059)
Sequence (Q15059 whole entry): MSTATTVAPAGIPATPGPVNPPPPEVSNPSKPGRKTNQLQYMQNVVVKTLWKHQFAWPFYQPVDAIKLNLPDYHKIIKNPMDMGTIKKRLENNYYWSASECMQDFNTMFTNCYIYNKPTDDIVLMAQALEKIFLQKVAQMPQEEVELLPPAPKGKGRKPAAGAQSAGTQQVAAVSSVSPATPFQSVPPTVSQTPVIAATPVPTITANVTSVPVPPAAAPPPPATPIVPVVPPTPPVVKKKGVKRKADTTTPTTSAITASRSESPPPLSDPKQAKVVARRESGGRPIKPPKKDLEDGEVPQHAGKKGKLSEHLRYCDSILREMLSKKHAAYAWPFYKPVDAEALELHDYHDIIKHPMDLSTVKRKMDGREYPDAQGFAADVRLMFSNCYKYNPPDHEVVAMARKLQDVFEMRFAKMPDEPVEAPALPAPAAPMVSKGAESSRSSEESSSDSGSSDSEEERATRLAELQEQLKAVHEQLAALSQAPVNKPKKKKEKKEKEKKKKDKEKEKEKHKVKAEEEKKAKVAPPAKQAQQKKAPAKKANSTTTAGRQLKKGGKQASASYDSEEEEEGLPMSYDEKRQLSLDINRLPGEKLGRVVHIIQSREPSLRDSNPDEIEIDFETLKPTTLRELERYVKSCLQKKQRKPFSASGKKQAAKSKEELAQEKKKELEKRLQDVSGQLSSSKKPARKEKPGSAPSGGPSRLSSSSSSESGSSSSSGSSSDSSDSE
test summary: Inhibition of BRD3 (unknown origin)
recorded metric: pIC50
Lab note: report pIC50 as minus log10 of the concentration in molar units, number only.

Please supply the value of reported pIC50 for the item [2H]C([2H])([2H])c1nnn(C)c1-c1cnc2c3cc(F)c(C(C)(C)O)cc3n([C@H](c3ccccc3)C3CCOCC3)c2c1
8.80

----------
test summary: Metabolic stability in alamethicin treated Beagle dog liver microsomes assessed as half life pretreated for 5 mins followed by NADPH addition and measured up to 45 mins by LC-MS/MS analysis
Type: ADME, Canis lupus familiaris, Microsome
condition description: time < 50 min
The following molecules are shown together with reported half-life values.
Express the result in min but write the number alone.

Before answering, review these 3 worked examples.
- smiles representation: "[2H]C([2H])([2H])c1nnn(C)c1-c1cnc2c3cc(Cl)c(C(C)(C)O)cc3n([C@H](c3ccccc3)C3CCOCC3)c2c1"
  recorded metric: "half-life"
  result value: 33
- smiles representation: "[2H]C([2H])([2H])c1nnn(C)c1-c1cnc2c3c(OC)cc(C(C)(C)O)cc3n([C@H](c3ccccc3)C3CCOCC3)c2c1"
  recorded metric: "half-life"
  result value: 73
- smiles representation: "[2H]C([2H])([2H])c1nnn(C)c1-c1cnc2c3ccc(C(C)(C)O)c(Cl)c3n([C@H](c3ccccc3)C3CCOCC3)c2c1"
  recorded metric: "half-life"
  result value: 35

Alright, here's another molecule for you.
Please supply the value of reported half-life for the item COc1cc2c3ncc(-c4c(C)nnn4C)cc3n([C@H](c3ccccc3)C3CCOCC3)c2cc1C(C)(C)O
9

----------
test summary: Metabolic stability in alamethicin treated human liver microsomes assessed as half life pretreated for 5 mins followed by NADPH addition and measured up to 45 mins by LC-MS/MS analysis
Type: ADME, Microsome
condition description: time < 50 min
recorded metric: half-life (min)
Express the result in min but write the number alone.

Before answering, review these 4 worked examples.
- molecule: "Cc1nnn(C)c1-c1cnc2c3ccc(S(C)(=O)=O)cc3n([C@H](c3ccccc3)C3CCOCC3)c2c1"
  half-life (min): 41
- molecule: "[2H]C([2H])([2H])c1nnn(C)c1-c1cnc2c3c(OC)cc(C(C)(C)O)cc3n([C@H](c3ccccc3)C3CCOCC3)c2c1"
  half-life (min): 23
- molecule: "Cc1nnn(C)c1-c1cnc2c3ccc(C(C)(O)C(F)(F)F)c(F)c3n([C@H](c3ccccc3)C3CCOCC3)c2c1 (stereo not given in full)"
  half-life (min): 40
- molecule: "[2H]C([2H])([2H])c1nnn(C)c1-c1cnc2c3cc(F)c(C(C)(C)O)cc3n([C@H](c3ccccc3)C3CCOCC3)c2c1"
  half-life (min): 52

Alright, here's another molecule for you.
Please supply the value of reported half-life for the item [2H]C([2H])([2H])c1nnn(C)c1-c1cnc2c3ccc(C(C)(C)O)c(Cl)c3n([C@H](c3ccccc3)C3CCOCC3)c2c1
56
